# Test details: Pharmacokinetic study in rats
# Assay type: in vivo, male Sprague-Dawley (SD) rats
# Measurement context: male, Sprague-Dawley, plasma, po; Rat, p.o, 10 mg/kg; read-out: Tmax (head Tma)
Readout type: Tmax (min)
Response body: numeric value in min, unit text excluded.

get_value(item= Cc1cccc(CCNc2nc3c(C)c(C)nn3c(N)c2C#N)n1 , readout=Tmax) returns 12

====

# Tgt: A2A receptor (Homo sapiens, UniProt P29274)
# Construct: host or cells: HEK-293
# Sequence (P29274 whole entry): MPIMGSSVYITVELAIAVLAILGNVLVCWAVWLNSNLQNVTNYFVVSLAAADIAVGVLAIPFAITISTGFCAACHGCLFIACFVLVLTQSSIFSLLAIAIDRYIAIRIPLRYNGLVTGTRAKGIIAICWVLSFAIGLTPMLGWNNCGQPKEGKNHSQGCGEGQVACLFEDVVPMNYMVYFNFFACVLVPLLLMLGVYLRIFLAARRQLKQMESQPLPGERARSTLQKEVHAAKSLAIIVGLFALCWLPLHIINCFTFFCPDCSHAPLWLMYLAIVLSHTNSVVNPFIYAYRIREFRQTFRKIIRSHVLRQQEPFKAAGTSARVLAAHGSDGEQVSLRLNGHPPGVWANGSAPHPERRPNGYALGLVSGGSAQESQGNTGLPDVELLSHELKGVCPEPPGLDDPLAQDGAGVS
# Test details: A2aR antagonism IC50, cAMP TR-FRET in HEK-293 cells, high concentration of adenosine (30 μM);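 also: compounds added 10 min before adenosine, then 30 min stimulation at room temperature in buffer with 100 µM rolipram and 30 µM EHNA, signal read 1 h after detection reagents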
# Assay type: cell-based
# Measurement context: HEK-293 cells expressing A2A receptor; agonist adenosine 30 μM; 2% HSA; inhibition of cAMP; read-out: A2AR IC50 (nM) (@30 μM Adenosine)
Readout type: IC50 (nM)
Response body: numeric value in nM, unit text excluded.

get_value(item= Cc1nn2c(N)c(C#N)c(NCCc3ccn(C4(CN)CC4)n3)nc2c1Cl [Example 68] , readout=IC50) returns 161

get_value(item= Cc1cccc(CCNc2nc3c(C)c(C)nn3c(N)c2C#N)n1 [Example 13] , readout=IC50) returns 300

get_value(item= Cc1nn2c(N)c(C#N)c(NCCc3cccc(C4(CO)CC4)n3)nc2c1Cl [Example 34] , readout=IC50) returns 160

get_value(item= Cc1nn2c(N)c(C#N)c(NCCc3cccc(CNCCO)n3)nc2c1Cl [Example 90] , readout=IC50) returns 77

get_value(item= Cc1cccc(CCNc2nc3c(Cl)c(C)nn3c(N)c2C#N)n1 [Example 119] , readout=IC50) returns 260

get_value(item= CCc1c(C)nn2c(N)c(C#N)c(NCCc3ccn(CCCSC)n3)nc12 [Example 161] , readout=IC50) returns 2770

get_value(item= Cc1nn2c(N)c(C#N)c(NCCc3ccn(C4(CO)CC4)n3)nc2c1C1CC1 [Example 101] , readout=IC50) returns 2100

get_value(item= CCCc1c(C)nn2c(N)c(C#N)c(NCCc3ccn(C4COCC4CO)n3)nc12 (single isomer, unassigned; (+)) [Example 160a] , readout=IC50) returns 579

get_value(item= CCc1c(C)nn2c(N)c(C#N)c(NCCc3cccn(CCSC)c3=O)nc12 [Example 142] , readout=IC50) returns 141

get_value(item= CCc1c(C)nn2c(N)c(C#N)c(NCCc3cccn(CCCO)c3=O)nc12 [Example 113] , readout=IC50) returns 187

get_value(item= Cc1nn2c(N)c(C#N)c(NCCc3cc(C)n(C4(CO)CC4)n3)nc2c1Cl [Example 75] , readout=IC50) returns 43

get_value(item= Cc1nn2c(N)c(C#N)c(NCCc3ccn(C4(CO)CC4)n3)nc2c1C(F)(F)F [Example 94] , readout=IC50) returns 104

get_value(item= CCc1c(C)nn2c(N)c(C#N)c(NCCc3ccn(C4CCC4CO)n3)nc12 (single isomer, unassigned; (-)) [Example 79] , readout=IC50) returns 88

get_value(item= Cc1nn2c(N)c(C#N)c(NCCc3ccn(C4(CO)CC4)n3)nc2c1Br [Example 69] , readout=IC50) returns 68

get_value(item= CCCc1c(C)nn2c(N)c(C#N)c(NCCc3cccn(CCCO)c3=O)nc12 [Example 156] , readout=IC50) returns 750

get_value(item= CCc1c(C)nn2c(N)c(C#N)c(NCCc3cccc(CCCO)n3)nc12 [Example 155] , readout=IC50) returns 181

get_value(item= CCc1c(C)nn2c(N)c(C#N)c(NCCc3ccn(CC4CC(O)C4)n3)nc12 (centres unmarked) [Example 85] , readout=IC50) returns 211

====

# Tgt: A2A receptor (Homo sapiens, UniProt P29274)
# Construct: host or cells: HEK-293
# Test details: A2aR antagonism IC50, cAMP TR-FRET (Lance Ultra) in HEK-293 cells, NECA as agonist;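 also: compounds tested from 10 µM down to 0.08 nM in buffer with Rolipram at room temperature, TR-FRET cAMP signal read 1 h after adding Eu-cAMP tracer and ULight anti-cAMP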
# Format: cell-based
# Measurement context: A2AR IC50 (nM) (@5 nM NECA), HEK-293 cells expressing A2A receptor; agonist NECA 5 nM (EC90); inhibition of cAMP
Would you mind telling me the reported IC50 of each entry?

Assay A2A receptor (Homo sapiens, UniProt P29274), sample CCc1c(C)nn2c(N)c(C#N)c(N[C@H](C)c3ccccn3)nc12 , IC50 read: 1010 nM

Assay A2A receptor (Homo sapiens, UniProt P29274), sample Cc1nn2c(N)c(C#N)c(NCc3ccn(C(C)(C)CO)n3)nc2c1C , IC50 read: 13 nM

Assay A2A receptor (Homo sapiens, UniProt P29274), sample Cc1nn2c(N)c(C#N)c(NCCc3ccc(F)cn3)nc2c1C , IC50 read: 6.8 nM

Assay A2A receptor (Homo sapiens, UniProt P29274), sample CCc1c(C)nn2c(N)c(C#N)c(NCCc3ccn(C4(CO)CC4)n3)nc12 , IC50 read: 0.23 nM

Assay A2A receptor (Homo sapiens, UniProt P29274), sample Cc1cccc(CNc2nc3c(C)c(C)nn3c(N)c2C#N)n1 , IC50 read: 6.6 nM

Assay A2A receptor (Homo sapiens, UniProt P29274), sample CCc1c(C)nn2c(N)c(C#N)c(NCCc3ccn(C4CCCC4CO)n3)nc12 (stereo not drawn) , IC50 read: 0.3 nM

Assay A2A receptor (Homo sapiens, UniProt P29274), sample CCc1c(C)nn2c(N)c(C#N)c(NCCc3cccc(CO)n3)nc12 , IC50 read: 0.58 nM

Assay A2A receptor (Homo sapiens, UniProt P29274), sample CCc1c(C)nn2c(N)c(C#N)c(N[C@@H](C)c3cccc(C)n3)nc12 , IC50 read: 0.15 nM

Assay A2A receptor (Homo sapiens, UniProt P29274), sample Cc1nn2c(N)c(C#N)c(NCCc3cccc(C4(CO)CC4)n3)nc2c1Cl , IC50 read: 0.4 nM

Assay A2A receptor (Homo sapiens, UniProt P29274), sample Cc1nn2c(N)c(C#N)c(NCCc3cccc(C(C)(C)CO)n3)nc2c1Cl , IC50 read: < 1 nM

Assay A2A receptor (Homo sapiens, UniProt P29274), sample Cc1nn2c(N)c(C#N)c(NCCc3cc(C)n(C4(CO)CC4)n3)nc2c1C , IC50 read: 0.2 nM

Assay A2A receptor (Homo sapiens, UniProt P29274), sample Cc1cccc([C@H](C)Nc2nc3c(C)c(C)nn3c(N)c2C#N)n1 , IC50 read: 2 nM

Assay A2A receptor (Homo sapiens, UniProt P29274), sample Cc1c(C2CC2)nn2c(N)c(C#N)c(NCCc3cccc(C(C)(C)O)n3)nc12 , IC50 read: 7.2 nM

Assay A2A receptor (Homo sapiens, UniProt P29274), sample Cc1nn2c(N)c(C#N)c(NCCc3cccc(C4CC4CO)n3)nc2c1C (stereo not drawn) , IC50 read: 0.17 nM

Assay A2A receptor (Homo sapiens, UniProt P29274), sample Cc1nn2c(N)c(C#N)c(NCCc3cccc(C(C)(C)O)n3)nc2c1C , IC50 read: 2 nM

Assay A2A receptor (Homo sapiens, UniProt P29274), sample CCc1cccc(CCNc2nc3c(C)c(C)nn3c(N)c2C#N)n1 , IC50 read: < 0.1 nM

Assay A2A receptor (Homo sapiens, UniProt P29274), sample Cc1cccc(CCNc2nc3c(C(C)C)c(C)nn3c(N)c2C#N)n1 , IC50 read: 31 nM

Assay A2A receptor (Homo sapiens, UniProt P29274), sample Cc1nn2c(N)c(C#N)c(NCCc3cccc(C(C)(C)CO)n3)nc2c1C , IC50 read: 0.3 nM

====

# Test details: Pharmacokinetic study in rats
# Format: in vivo, male Sprague-Dawley (SD) rats
# Measurement context: male, Sprague-Dawley, plasma, iv; Rat, i.v, 15 mg/kg; read-out: t1/2 (converted)
Readout type: half-life (h)
Response body: numeric value in h, unit text excluded.

get_value(item= CCc1c(C)nn2c(N)c(C#N)c(NCCc3ccn(C4(CO)CC4)n3)nc12 , readout=half-life) returns 1.2

====

# Test details: Pharmacokinetic study in dogs
# Format: in vivo, male Beagle dogs
# Measurement context: male, Beagle, plasma, oral, 10 mg/kg; Dog, Table 6; read-out: % F
Would you mind telling me the reported bioavailability of each entry?

get_value(item= CCc1c(C)nn2c(N)c(C#N)c(NCCc3ccn(C4(CO)CC4)n3)nc12 [Example 39] , readout=bioavailability) returns 25%

get_value(item= Cc1cccc(CCNc2nc3c(C)c(C)nn3c(N)c2C#N)n1 [Example 13] , readout=bioavailability) returns 25%

====

# Test details: Pharmacokinetic study in mice
# Type: in vivo, CD1 mice
# Measurement context: CD1, mouse, plasma, sc, 10 mg/kg, s.c, 10 mg/kg, read-out: Tmax (head Tma)
Readout type: Tmax (min)
Response body: numeric value in min, unit text excluded.

get_value(item= Cc1cccc(CCNc2nc3c(C)c(C)nn3c(N)c2C#N)n1 , readout=Tmax) returns 30
